Each entry below carries its recorded cytotoxicity at 70.5 h.
Assay: Human HepG2 cell viability assay in 384 well format
Format: toxicity, cell-based
Set-up: dose 125 nL, time 70.5 hour; concentration not given beside the values
Conditions: HepG2 cells, read-out: Inhibition

[
  {
    "molecule": "Cc1cc(C(=O)N2C[C@H](c3ccccc3)[C@@H](N)C2)c2ccc(F)cc2n1",
    "cytotoxicity at 70.5 h / %": -12.1
  },
  {
    "molecule": "Cc1nn(C(C)C)cc1S(=O)(=O)N(C)Cc1nonc1C",
    "cytotoxicity at 70.5 h / %": -7.62
  },
  {
    "molecule": "c1ccc(CN2CCOC3(CCCN(c4nccs4)C3)C2)cc1 (configuration not stated)",
    "cytotoxicity at 70.5 h / %": -7.62
  },
  {
    "molecule": "CCOC(=O)C1(Cc2ccccc2-c2ccccc2OC)CCNCC1",
    "cytotoxicity at 70.5 h / %": 11
  },
  {
    "molecule": "C/C=C(\\C)CN(CCN1CCOCC1)Cc1ccco1",
    "cytotoxicity at 70.5 h / %": -8.08
  },
  {
    "molecule": "Cc1cc(C)c(CNC(=O)N2CCC(N3CCCCC3)CC2)c(=O)[nH]1",
    "cytotoxicity at 70.5 h / %": -7.65
  },
  {
    "molecule": "O=C(NCC1(N2CCOCC2)CCSC1)Nc1ccncc1 (configuration not stated)",
    "cytotoxicity at 70.5 h / %": -6.91
  },
  {
    "molecule": "CC(NC(=O)Cn1ccc(=O)n(C)c1=O)c1ccccc1F (configuration not stated)",
    "cytotoxicity at 70.5 h / %": -5.75
  },
  {
    "molecule": "NC(=O)CC1CCCN(c2cncc(SCc3ccccc3)n2)C1 (configuration not stated)",
    "cytotoxicity at 70.5 h / %": -1.35
  },
  {
    "molecule": "Cc1ccc(-c2csc(N)c2C#N)c(C)c1",
    "cytotoxicity at 70.5 h / %": -15.8
  },
  {
    "molecule": "CN(C)CCN1C(=O)CCCC12CCCN(C(=O)c1cc[nH]n1)C2 (configuration not stated)",
    "cytotoxicity at 70.5 h / %": -4.9
  },
  {
    "molecule": "CCc1nc(C)c(C(=O)NCCN2CCC(C)CC2)s1",
    "cytotoxicity at 70.5 h / %": 0.72
  }
]

====

Assay: Human HepG2 cell viability assay in 384 well format
Assay type: toxicity, cell-based
Parameters: dose 125 nL, time 70.5 hour; concentration not given beside the values
Settings: HepG2 cells, read-out: Inhibition

[
  {
    "molecule": "Cc1nc(-c2ccccc2)ccc1C(=O)N1CCn2c(C)nnc2C1",
    "units symbol": "%",
    "cytotoxicity at 70.5 h": -11.8
  },
  {
    "molecule": "O=C1C(Sc2nnnn2C2CC2)CCN1c1ccccc1F (configuration not stated)",
    "units symbol": "%",
    "cytotoxicity at 70.5 h": -3.39
  },
  {
    "molecule": "COc1ccc(C(=O)N2C[C@@H](O)[C@H](NCc3cnc(C)cn3)C2)cc1",
    "units symbol": "%",
    "cytotoxicity at 70.5 h": 22.1
  },
  {
    "molecule": "O=C(NCC(CO)Cc1ccc(Cl)cc1)c1ccncc1Cl (configuration not stated)",
    "units symbol": "%",
    "cytotoxicity at 70.5 h": -1.15
  },
  {
    "molecule": "CN(C)CC(=O)N1CC2(CCN(C(=O)Nc3ccccc3)C2)C1",
    "units symbol": "%",
    "cytotoxicity at 70.5 h": 22.9
  },
  {
    "molecule": "Cc1ncsc1C(=O)N1CCN(Cc2cscn2)CC1",
    "units symbol": "%",
    "cytotoxicity at 70.5 h": -1.83
  },
  {
    "molecule": "CC1(C)CNC(=O)c2nc(CCCN3CCCC3)[nH]c2C1",
    "units symbol": "%",
    "cytotoxicity at 70.5 h": -8.44
  },
  {
    "molecule": "Cn1cc(CCC(=O)N2C[C@H]3CC[C@@H]2CN(Cc2ccccc2)C3)cn1",
    "units symbol": "%",
    "cytotoxicity at 70.5 h": -5.6
  },
  {
    "molecule": "Cc1ccccc1S(=O)(=O)CCOC(C)C",
    "units symbol": "%",
    "cytotoxicity at 70.5 h": 9.57
  },
  {
    "molecule": "Cc1cccc(CCC(=O)Nc2ccnn2C2CCS(=O)(=O)C2)c1 (configuration not stated)",
    "units symbol": "%",
    "cytotoxicity at 70.5 h": 17
  },
  {
    "molecule": "CCC(NC(=O)c1ccoc1)c1ccccc1OCC(=O)N1CCCC1 (configuration not stated)",
    "units symbol": "%",
    "cytotoxicity at 70.5 h": -3.93
  },
  {
    "molecule": "CCN(Cc1ccccc1)Cc1nc2c(cnn2C)c(=O)[nH]1",
    "units symbol": "%",
    "cytotoxicity at 70.5 h": 17
  }
]
